measurement_description: Equilibrium solubility in buffer solutions (UV)
Assay type: physicochemical
experimental_parameters: buffer solution pH 1.2, simulated gastric fluid, thermodynamic from solid, pH 1.2 buffer solution, 37 °C, read-out: Mean solubility ± SD
measurement_kind: solubility at 24 h (µg/mL)

molecule	measurement_unit	solubility at 24 h
COc1cc(OC)c2c(c1Cl)OC1(C2=O)C(OCc2ccccc2)=CC(=NNC(N)=O)CC1C (stereo not shown)	µg/mL	14
COc1cc(OC)c2c(c1Cl)OC1(C2=O)C(OCc2ccccc2)=CC(=NNC(=N)N)CC1C (stereo not shown)	µg/mL	26.7
COC1=CC(=NNC(N)=O)C[C@@H](C)[C@]12Oc1c(Cl)c(OC)cc(OC)c1C2=O (mixture of isomers)	µg/mL	14.9
COc1cc(OC)c2c(c1Cl)O[C@]1(C2=O)C(OCc2ccccc2)=CC(=NOCC(=O)O)C[C@H]1C (mixture of isomers)	µg/mL	14.3
COC1=CC(=O)C[C@@H](C)[C@]12Oc1c(Cl)c(OC)cc(OC)c1C2=O	µg/mL	12.3

(1) COc1cc(OC)c2c(c1Cl)O[C@]1(C2=O)C(OCc2ccccc2)=CC(=O)C[C@H]1C [Compound 3, reference compound]
(2) COC1=CC(=NNC(=O)c2ccncc2)C[C@@H](C)[C@]12Oc1c(Cl)c(OC)cc(OC)c1C2=O (mixture of isomers)
Prompt: Endpoint returns the identifier whose solubility at 24 h is numerically larger, either 1 or 2 . Choose, then provide that item's label.
Completion: 2
(2: 29.1 µg/mL, 1: 11.1 µg/mL)

---

Reported IC50 values are given for each entry in this list.
Test system: HCT116 cells
measurement_description: SRB cytotoxicity assay, HCT116
Assay type: cell-based, human
experimental_parameters: Homo sapiens, HCT-116, read-out: IC50 against HCT116
Expressed in µM, but write only the number.

Prompt: So what's the measured IC50 for this one? COc1cc(OC)c2c(c1Cl)OC1(C2=O)C(OCc2ccccc2)=CC(=NNC(=N)N)CC1C (centres unmarked)
Completion: 8.39

Prompt: What about this compound? COc1cc(OC)c2c(c1Cl)O[C@]1(C2=O)C(OCc2ccccc2)=CC(=O)C[C@H]1C [Compound 3, reference compound]
Completion: 35.8

Prompt: What about this compound? COC1=CC(=NNC(N)=O)C[C@@H](C)[C@]12Oc1c(Cl)c(OC)cc(OC)c1C2=O (mixture of isomers)
Completion: 87.8

Prompt: What about this compound? O=c1[nH]cc(F)c(=O)[nH]1 [5-Fluorouracil, reference compound]
Completion: 19.5

---

measurement_description: Equilibrium solubility in buffer solutions (UV)
Type: physicochemical
experimental_parameters: buffer solution pH 6.8, aqueous buffer, thermodynamic from solid, pH 6.8 buffer solution, 37 °C, read-out: Mean solubility ± SD
measurement_kind: solubility at 24 h (µg/mL)

Reference set (5 entries):
compound	solubility at 24 h / µg/mL
COc1cc(OC)c2c(c1Cl)O[C@]1(C2=O)C(OCc2ccccc2)=CC(=O)C[C@H]1C [Compound 3, reference compound]	11.1
COc1cc(OC)c2c(c1Cl)OC1(C2=O)C(OCc2ccccc2)=CC(=NNC(=N)N)CC1C (stereo not shown)	16.6
COC1=CC(=O)C[C@@H](C)[C@]12Oc1c(Cl)c(OC)cc(OC)c1C2=O	12.4
COc1cc(OC)c2c(c1Cl)OC1(C2=O)C(OCc2ccccc2)=CC(=NNC(N)=O)CC1C (stereo not shown)	13.8
COC1=CC(=NNC(N)=O)C[C@@H](C)[C@]12Oc1c(Cl)c(OC)cc(OC)c1C2=O (mixture of isomers)	14.5

(1) COC1=CC(=NNC(=O)c2ccncc2)C[C@@H](C)[C@]12Oc1c(Cl)c(OC)cc(OC)c1C2=O (mixture of isomers)
(2) COc1cc(OC)c2c(c1Cl)O[C@]1(C2=O)C(OCc2ccccc2)=CC(=NOCC(=O)O)C[C@H]1C (mixture of isomers)
Prompt: Which gives the smaller solubility at 24 h number: 1 or 2 ? Choose, then provide that item's label.
Completion: 1
(1: 12.5 µg/mL, 2: 27.9 µg/mL)
